Entries and their melting point values follow.

Item: `Cc1cccc(C(=O)N2CC[Si](C)(C)CC2)c1` | melting point: 65 to 68 °C

Item: `C[Si]1(C)CCN(C(=O)c2ccccc2)CC1` | melting point: 65 to 67 °C

Continuing:
Item: `C[Si]1(C)CCN(C(=O)c2ccccn2)CC1` | melting point: 101 to 103 °C

Item: `C[Si]1(C)CCN(C(=O)c2cc(Cl)ccc2Cl)CC1` | melting point: 79 to 81 °C

Where these numbers come from: patent US9661855B2
